Measured IC50 accompanies every entry in the list below.
Target: xanthine oxidase (Bos taurus)
Construct: purchased Sigma Chemical Company, St. Louis, Missouri
Assay: in vitro xanthine oxidase assay (rate of uric acid formation from xanthine)
Type: biochemical
Conditions: milk xanthine oxidase, 0.05 micromoles xanthine in 1 ml, pH 7.4, room temperature; read-out: I50 (concentration of drug which inhibits 50% of the oxidation of xanthine to uric acid) (converted)
# number only, unit nM dropped from output

>>> print(df.to_string())
                              smiles_data                  target_system  meas_value
0  O=C(O)c1[nH]nc(-c2cccc(C(F)(F)F)c2)c1O  xanthine oxidase (Bos taurus)        44.8
1           Cn1nc(-c2ccc(Br)cc2)cc1C(=O)O  xanthine oxidase (Bos taurus)         416
2       Cn1nc(-c2ccc(Cl)c(Cl)c2)cc1C(=O)O  xanthine oxidase (Bos taurus)         177

Ask: Output IC50 of "Cc1cccc(-c2cc(C(=O)O)n(C)n2)c1"
Result: 1390

Ask: Note down IC50 recorded for "COc1ccc(-c2cc(C(=O)O)n(C)n2)cc1"
Result: 310

Ask: Identify the reported IC50 for the following entry. "COc1ccc(-c2cc(C(=O)O)n(C)n2)cc1OC"
Result: 244

Ask: Supply reported IC50 belonging to this compound: "O=C(O)c1cc(-c2cccc(C(F)(F)F)c2)n[nH]1"
Result: 390

Ask: Using known records, supply IC50 for "Cn1nc(-c2cccc(C(F)(F)F)c2)c(Br)c1C(=O)O"
Result: 57.3

Ask: Entry "Cn1nc(-c2ccc(C(F)(F)F)cc2)cc1C(=O)O" needs its IC50 filled in; supply it.
Result: 426

Ask: Give the measured IC50 for "COc1ccc(-c2n[nH]c(C(=O)O)c2O)cc1"
Result: 726

Ask: Specify IC50 for "Cn1nc(-c2cccc(C(F)(F)F)c2)c(O)c1C(=O)O" and stop.
Result: 28

Ask: Answer with reported IC50 of "O=C(O)c1[nH]nc(-c2ccc(F)cc2)c1O"
Result: 1580

Ask: Kindly indicate its recorded IC50. Item: "Cn1nc(-c2cccc(Cl)c2)cc1C(=O)O"
Result: 304

---

Target: xanthine oxidase (Bos taurus, UniProt P80457)
Construct: purchased Sigma Chemical Company, St. Louis, Missouri
Sequence (P80457 whole entry): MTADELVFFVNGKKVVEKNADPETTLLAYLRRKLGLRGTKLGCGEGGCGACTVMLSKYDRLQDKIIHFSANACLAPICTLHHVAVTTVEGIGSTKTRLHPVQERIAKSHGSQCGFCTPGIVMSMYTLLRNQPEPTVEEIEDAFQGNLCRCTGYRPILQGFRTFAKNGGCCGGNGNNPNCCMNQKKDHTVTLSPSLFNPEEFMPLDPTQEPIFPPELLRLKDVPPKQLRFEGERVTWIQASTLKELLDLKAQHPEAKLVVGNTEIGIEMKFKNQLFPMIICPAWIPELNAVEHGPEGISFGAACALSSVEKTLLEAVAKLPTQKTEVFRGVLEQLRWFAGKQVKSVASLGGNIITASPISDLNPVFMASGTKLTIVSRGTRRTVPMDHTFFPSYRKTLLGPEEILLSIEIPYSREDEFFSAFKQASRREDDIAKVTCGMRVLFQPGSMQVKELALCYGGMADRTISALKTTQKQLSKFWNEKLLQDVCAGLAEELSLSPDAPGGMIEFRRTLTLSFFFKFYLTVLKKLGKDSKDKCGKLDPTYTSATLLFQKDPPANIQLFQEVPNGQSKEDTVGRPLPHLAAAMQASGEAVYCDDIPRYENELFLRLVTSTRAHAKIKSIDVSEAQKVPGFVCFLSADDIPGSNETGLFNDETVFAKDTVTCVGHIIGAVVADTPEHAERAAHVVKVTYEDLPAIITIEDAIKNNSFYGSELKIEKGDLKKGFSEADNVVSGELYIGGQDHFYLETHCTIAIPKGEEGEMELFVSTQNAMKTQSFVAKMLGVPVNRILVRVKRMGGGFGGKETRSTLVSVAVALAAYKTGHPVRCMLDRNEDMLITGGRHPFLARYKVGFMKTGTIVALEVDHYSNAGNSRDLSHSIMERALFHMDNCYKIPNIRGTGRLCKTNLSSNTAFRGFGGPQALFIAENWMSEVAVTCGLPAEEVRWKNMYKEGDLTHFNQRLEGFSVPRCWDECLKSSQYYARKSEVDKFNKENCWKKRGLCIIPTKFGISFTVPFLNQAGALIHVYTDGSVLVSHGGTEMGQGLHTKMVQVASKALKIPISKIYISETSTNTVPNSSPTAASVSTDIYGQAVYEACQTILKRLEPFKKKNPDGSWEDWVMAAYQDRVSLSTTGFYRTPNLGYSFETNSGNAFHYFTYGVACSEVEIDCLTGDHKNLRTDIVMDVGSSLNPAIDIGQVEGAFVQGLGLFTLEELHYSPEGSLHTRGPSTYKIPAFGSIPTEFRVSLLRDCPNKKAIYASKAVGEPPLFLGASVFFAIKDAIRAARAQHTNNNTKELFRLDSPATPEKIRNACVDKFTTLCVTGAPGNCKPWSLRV
Assay: in vitro xanthine oxidase assay (rate of uric acid formation from xanthine)
Assay type: biochemical
quantity_name: IC50
Value and unit, in that order.

Ask: State, in one line, measured IC50 of "Cn1nc(-c2cccc(C(F)(F)F)c2)c(Cl)c1C(=O)O"
Result: 46 nM

---

Target: xanthine oxidase (Bos taurus, UniProt P80457)
Construct: purchased Sigma Chemical Company, St. Louis, Missouri
Assay: in vitro xanthine oxidase assay (rate of uric acid formation from xanthine)
Format: biochemical
Settings: milk xanthine oxidase, 0.05 micromoles xanthine in 1 ml, pH 7.4, room temperature; read-out: I50 (concentration of drug which inhibits 50% of the oxidation of xanthine to uric acid) (converted)
quantity_name: log10 IC50 (log10 of the value in nM)
log10 IC50, nM

Please review the following examples before continuing.
>>> print(df.to_string())
                              smiles_data  meas_value
0           Cn1nc(-c2cccc(Br)c2)cc1C(=O)O        1.85
1           Cn1nc(-c2ccc(Cl)cc2)cc1C(=O)O        3.23
2     Cn1nc(-c2cccc(C(F)(F)F)c2)cc1C(=O)O        1.41
3  Cn1nc(-c2cccc(C(F)(F)F)c2)c(N)c1C(=O)O        1.48

Ask: State recorded log10 IC50 with xanthine oxidase (Bos taurus, UniProt P80457), entry "Cn1nc(-c2cccc(Br)c2)c(Cl)c1C(=O)O" , no comment.
Result: 1.82

---

Experiment: oral LD50 in mice
Settings: mouse, in vivo; LD50 oral mice / ED50 oral rats
quantity_name: selectivity ratio
Answer with the value's number alone.

In [3]: df
Out[3]:
                                   compound      quantity_name  meas_value
0  Cn1nc(-c2cccc(C(F)(F)F)c2)c(Cl)c1C(=O)O [R=CF3, X=Cl]  selectivity ratio          38

Ask: Check the records and state selectivity ratio for Cn1nc(-c2cccc(C(F)(F)F)c2)cc1C(=O)O [R=3-CF3, R^1=H]
Result: 19.5

The origin of these recorded values is patent US4495195A.
